All values here come from the supplement of paper PMC8728848.

assayed-target: Neu5Ac(a2-3)Gal(b1-3)GlcNAc(b1-2)[Neu5Ac(a2-3)Gal(b1-3)GlcNAc(b1-4)]Man(a1-6)[Neu5Ac(a2-3)Gal(b1-3)GlcNAc(b1-2)Man(a1-3)]Man(b1-4)GlcNAc(b1-4)GlcNAc
measurement-protocol: glycan array binding signal (z-score within array); higher = stronger binding
condition-info: glycan notation: IUPAC condensed, linker removed
Only a selection was taken, and the strongest signals are over-represented in it overall.
Each entry below carries its reported glycan array binding signal (z-score).
Respond with the number and no other words.

For orientation, consider the following solved cases.
| binder | measure-name | obs-value |
| --- | --- | --- |
| MUB70 (Lactobacillus reuteri) (protein) CVHVQYIDGETDQMLRQDDLDGYTDETIPYSTAEGIKKFEGDGYELFKDNFPAGEKFDNDDTNDQFYTVIF | glycan array binding signal (z-score) | 6.11 |
| Clec49 (Caenorhabditis elegans) (protein) MTRLTLLLFGLLGAATAQTCNTGGIYNEQFNRCYQYFTAPAQFSFAEQQCNLLGGHLASVQNGQENALLQSNAANSFKRSNYSDYWIGATDLETSGTWKWTDPSVTFDYSNWQLGEPQSGSDCAIQDKGDGTWSAIGCTSYRPYVCVTPVIMTATCPPITTPIPTTCPTPAPCPIKQCVPSCDQGWTYFSPTDFCYRVYHGEKFNDAEASCVLLGGHLASIHSLTENTFVNNIASCGIKEGKYEHLAWIGMRKVGQDWVWTDGTPSDYFNWAPKQPDNPKKELCVQTAPDLSHDKWYENWNNLECNEVMRAYICKKASIHN | glycan array binding signal (z-score) | 3.69 |

// moving on: another record for glycan array binding signal (z-score)
Entry cFel (Cyprinus carpio), P68512 (protein) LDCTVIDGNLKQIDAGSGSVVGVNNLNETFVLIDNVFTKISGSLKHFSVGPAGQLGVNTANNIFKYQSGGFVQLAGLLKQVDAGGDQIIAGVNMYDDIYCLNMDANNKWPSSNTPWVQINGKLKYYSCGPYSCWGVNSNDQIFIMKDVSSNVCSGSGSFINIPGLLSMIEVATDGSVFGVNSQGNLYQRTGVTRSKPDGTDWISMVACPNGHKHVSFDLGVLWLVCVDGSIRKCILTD — recorded glycan array binding signal (z-score) = 0.972
